Biological target: Gag-Pol polyprotein [484-582,Q491K,I497V,V499I,E519D,R541K,D544E,L547P,Q553K,A555V,G557S,I568V,L573M,L574M] (Human immunodeficiency virus, UniProt Q9QBY3, A555V/D544E/E519D/G557S/I497V/I568V/L547P/L573M/L574M/Q491K/Q553K/R541K/V499I)
Construct: 484-582
Experiment: HIV-1 protease inhibition assay
Conditions: pH 4.7; 25 °C
// reported pKi for each item listed
Please express pKi as -log10 of the molar concentration.

Field: example entries. Status: answers known.
CC[C@H](C)CN(C[C@@H](O)[C@H](Cc1ccccc1)NC(=O)O[C@H]1CO[C@H]2OCC[C@H]21)S(=O)(=O)c1ccc2c(c1)OCO2
10.00
CC[C@H](C)CN(C[C@@H](O)[C@H](Cc1ccccc1)NC(=O)O[C@H]1CO[C@H]2OCC[C@H]21)S(=O)(=O)c1ccc(OC)cc1
10.68
CC[C@H](C)CN(C[C@@H](O)[C@H](Cc1ccccc1)NC(=O)O[C@H]1CO[C@H]2OCC[C@H]21)S(=O)(=O)c1ccc2ncsc2c1
10.39

Given CCC(CC)CN(C[C@@H](O)[C@H](Cc1ccccc1)NC(=O)O[C@H]1CO[C@H]2OCC[C@H]21)S(=O)(=O)c1ccc(N)cc1 , respond with its pKi.
10.66

Given CC[C@H](C)CN(C[C@@H](O)[C@H](Cc1ccccc1)NC(=O)O[C@H]1CO[C@H]2OCC[C@H]21)S(=O)(=O)c1ccc(N)cc1 , respond with its pKi.
10.89

Given CCC(CC)CN(C[C@@H](O)[C@H](Cc1ccccc1)NC(=O)O[C@H]1CO[C@H]2OCC[C@H]21)S(=O)(=O)c1ccc(CO)cc1 , respond with its pKi.
10.15

Given CCC(CC)CN(C[C@@H](O)[C@H](Cc1ccccc1)NC(=O)O[C@H]1CO[C@H]2OCC[C@H]21)S(=O)(=O)c1ccc2ncsc2c1 , respond with its pKi.
10.28

* * *

Molecular target: Gag-Pol polyprotein [484-582,Q491K,I497V,V499I,E519D,G532V,I538V,R541K,D544E,L547P,Q553K,V566A,L573M] (Human immunodeficiency virus, UniProt Q9QBY3, D544E/E519D/G532V/I497V/I538V/L547P/L573M/Q491K/Q553K/R541K/V499I/V566A)
Construct: 484-582
Test: HIV-1 protease inhibition assay
Conditions: pH 4.7; 25 °C
// reported Ki for each item listed
Supply the numeric figure in nM, leaving out any unit text.

CCC(CC)CN(C[C@@H](O)[C@H](Cc1ccccc1)NC(=O)O[C@H]1CO[C@H]2OCC[C@H]21)S(=O)(=O)c1ccc(N)cc1
0.034

Given CCC(CC)CN(C[C@@H](O)[C@H](Cc1ccccc1)NC(=O)O[C@H]1CO[C@H]2OCC[C@H]21)S(=O)(=O)c1ccc(OC)cc1 , respond with its Ki.
0.001

Given CC[C@H](C)CN(C[C@@H](O)[C@H](Cc1ccccc1)NC(=O)O[C@H]1CO[C@H]2OCC[C@H]21)S(=O)(=O)c1ccc2ncsc2c1 , respond with its Ki.
0.012

Given CCC(CC)CN(C[C@@H](O)[C@H](Cc1ccccc1)NC(=O)O[C@H]1CO[C@H]2OCC[C@H]21)S(=O)(=O)c1ccc(CO)cc1 , respond with its Ki.
0.005

Given CC[C@H](C)CN(C[C@@H](O)[C@H](Cc1ccccc1)NC(=O)O[C@H]1CO[C@H]2OCC[C@H]21)S(=O)(=O)c1ccc(OC)cc1 , respond with its Ki.
0.005

Given CC[C@H](C)CN(C[C@@H](O)[C@H](Cc1ccccc1)NC(=O)O[C@H]1CO[C@H]2OCC[C@H]21)S(=O)(=O)c1ccc(N)cc1 , respond with its Ki.
0.016

Given CCC(CC)CN(C[C@@H](O)[C@H](Cc1ccccc1)NC(=O)O[C@H]1CO[C@H]2OCC[C@H]21)S(=O)(=O)c1ccc2ncsc2c1 , respond with its Ki.
0.126

* * *

Biological target: Gag-Pol polyprotein [484-582,Q491K,I494L,I497V,V499I,E519D,I534V,R541K,D544E,Q553K,A555V,L573M] (Human immunodeficiency virus, UniProt Q9QBY3, A555V/D544E/E519D/I494L/I497V/I534V/L573M/Q491K/Q553K/R541K/V499I)
Construct: 484-582
Assay: HIV-1 protease inhibition assay
Settings: pH 4.7; 25 °C
Measured attribute: pKi
Please express pKi as -log10 of the molar concentration.

CCC(CC)CN(C[C@@H](O)[C@H](Cc1ccccc1)NC(=O)O[C@H]1CO[C@H]2OCC[C@H]21)S(=O)(=O)c1ccc(OC)cc1
11.00
CC[C@H](C)CN(C[C@@H](O)[C@H](Cc1ccccc1)NC(=O)O[C@H]1CO[C@H]2OCC[C@H]21)S(=O)(=O)c1ccc2c(c1)OCO2
10.46

Given CC[C@H](C)CN(C[C@@H](O)[C@H](Cc1ccccc1)NC(=O)O[C@H]1CO[C@H]2OCC[C@H]21)S(=O)(=O)c1ccc(N)cc1 , respond with its pKi.
11.22

* * *

Biological target: Gag-Pol polyprotein [484-582,Q491K,I497V,V499I,E519D,G532V,I538V,R541K,D544E,L547P,Q553K,V566A,L573M] (Human immunodeficiency virus, UniProt Q9QBY3, D544E/E519D/G532V/I497V/I538V/L547P/L573M/Q491K/Q553K/R541K/V499I/V566A)
Construct: 484-582
Experiment: HIV-1 protease inhibition assay
Details: pH 4.7; 25 °C
// reported Ki for each item listed
Supply the numeric figure in pM, leaving out any unit text.

Given CC[C@H](C)CN(C[C@@H](O)[C@H](Cc1ccccc1)NC(=O)O[C@H]1CO[C@H]2OCC[C@H]21)S(=O)(=O)c1ccc(CO)cc1 , respond with its Ki.
22

Given CC[C@H](C)CN(C[C@@H](O)[C@H](Cc1ccccc1)NC(=O)O[C@H]1CO[C@H]2OCC[C@H]21)S(=O)(=O)c1ccc2c(c1)OCO2 , respond with its Ki.
29

Given CCC(CC)CN(C[C@@H](O)[C@H](Cc1ccccc1)NC(=O)O[C@H]1CO[C@H]2OCC[C@H]21)S(=O)(=O)c1ccc2c(c1)OCO2 , respond with its Ki.
34
